Listed next: entries and their corresponding cell viability.
system: SEM cells; assay: cell viability relative to DMSO control; higher = less cytotoxic; conditions: HPLM + 10% dialyzed FBS; 48 h; 1.71 µM
Answer with a number only, understood to be in %.

Previously resolved entries follow.
compound | assay_system | unit_of_measure | cell viability
CC(C)(C#N)c1cc(Cn2cncn2)cc(C(C)(C)C#N)c1 | SEM cells | % | 112
CNC(=O)c1ccc2cc(C3(O)CCn4cncc43)ccc2c1 (centres undefined) | SEM cells | % | 107
CCOC(=O)c1ccc(OC(=O)CCCCCNC(=N)N)cc1 | SEM cells | % | 127
CC(C)c1noc(N2CCC(COc3ccc(-c4ccc([S+](C)(=O)[O-])cc4)nc3)CC2)n1 | SEM cells | % | 84.8
CCN(CC)CCOc1ccc(/C(=C(\Cl)c2ccccc2)c2ccccc2)cc1 | SEM cells | % | 125

What does the data say about its cell viability? Entry: NC1=C(Cl)C(=CC=N1)OC2=C(F)C=C(NC(=O)\C3=C\N\C=C(C3=O)\C4=CC=C(F)C=C4)C=C2
64

Values were extracted from the supplement of paper PMC11451515.
